target: Mitogen-activated protein kinase 14 (Homo sapiens, UniProt Q16539); assay: Inhibition of p38alpha; details: read-out: IC50
Sequence (Q16539 whole entry): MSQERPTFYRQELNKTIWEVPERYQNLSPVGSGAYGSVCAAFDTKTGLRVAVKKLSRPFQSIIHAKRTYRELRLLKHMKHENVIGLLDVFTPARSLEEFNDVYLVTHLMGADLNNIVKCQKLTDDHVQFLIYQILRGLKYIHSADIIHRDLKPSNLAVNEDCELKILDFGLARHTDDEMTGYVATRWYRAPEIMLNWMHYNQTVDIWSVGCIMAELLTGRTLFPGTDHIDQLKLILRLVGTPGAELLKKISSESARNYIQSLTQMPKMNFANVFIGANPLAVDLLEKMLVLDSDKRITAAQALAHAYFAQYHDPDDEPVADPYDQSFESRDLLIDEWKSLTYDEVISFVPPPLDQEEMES
quantity name: pIC50
To interpret pIC50, take it as minus log10 of a concentration measured in moles per litre.

Entry O=C1C(O)Cc2c(-c3ccccc3Cl)cc(O)cc2N1c1c(Cl)cccc1Cl (stereo not given) , pIC50 reported as 8.40

Query O=C1C(O)Cc2c(-c3ccccc3Cl)cccc2N1c1c(Cl)cccc1Cl (stereo not given) yields pIC50 of 7.56

Looking up O=c1ccc2c(-c3ccccc3Cl)cc(O)cc2n1-c1c(Cl)cccc1Cl , I see its pIC50 listed as 9.15

More entries:
Notebook: C[C@H](N)C(=O)NCCOc1cc(-c2ccccc2Cl)c2ccc(=O)n(-c3c(Cl)cccc3Cl)c2c1 , pIC50 read as 9.80

Briefly, pIC50 measured for O=c1ccc2c(-c3ccccn3)cccc2n1-c1c(Cl)cccc1Cl : 6.46

Sourced from ChEMBL document CHEMBL1144044
